- Test system: antibody in serum immobilized on goat anti-rabbit second antibody coated tubes
- method.notes: Enzyme immunoassay (EIA) with HRP competitor or Hapten I conjugates, Aroclor 1248 analyte (Method D)
- Format: binding
- experimental.conditions: improvement in I50 sensitivity compared to homologous (Hapten I) based assay
Lab note: compare Relative Response with 10 fold, writing 1.0 if less and 0.0 if equal or more.

smiles.str: O=C(O)CCCSc1cc(Cl)ccc1Cl
subject.of.test: antibody in serum immobilized on goat anti-rabbit second antibody coated tubes
assigned.category: 0.0

smiles.str: O=C(O)CCCOc1ccc(Cl)c(Cl)c1
subject.of.test: antibody in serum immobilized on goat anti-rabbit second antibody coated tubes
assigned.category: 0.0

smiles.str: O=C(O)CCCC(=O)c1ccc(Cl)c(Cl)c1
subject.of.test: antibody in serum immobilized on goat anti-rabbit second antibody coated tubes
assigned.category: 0.0

Identify whether the compound O=C(O)CCCCc1cc(Cl)ccc1Cl records Relative Response below 10 fold.
0.0

----------
- Tested on: Hapten VII sera (polyclonal antibodies)
- method.notes: Sera direct EIA with Hapten VII sera and competitor enzyme conjugate
- Format: binding, mice
- experimental.conditions: Table 6, I50 of analyte 3,3',4,4'-tetrachlorobiphenyl with the listed competitor, Hapten VII sera
endpoint.name: I50 (ppb)
Report the figure in ppb without appending any unit label.

Check out these entries, answers already filled in.
compound: O=C(O)CCCOc1ccc(Cl)c(Cl)c1 [Competitor B]
subject.of.test: Hapten VII sera (polyclonal antibodies)
I50 (ppb): 3.5

compound: O=C(O)CCCSc1cc(Cl)ccc1Cl [Competitor C]
subject.of.test: Hapten VII sera (polyclonal antibodies)
I50 (ppb): 1.5

Now consider the entry below.
Look up I50: O=C(O)CCCC(=O)c1ccc(Cl)c(Cl)c1 [Competitor D]
3

----------
- Test system: antibody in serum immobilized on goat anti-rabbit second antibody coated tubes
- method.notes: Enzyme immunoassay (EIA) with HRP competitor or Hapten I conjugates, Aroclor 1248 analyte (Method D)
- Format: binding
- experimental.conditions: assay solution concentration of Aroclor 1248 producing 50% reduction in assay control signal; HRP conjugate of the listed competitor
# key: entry, value: Assay Response (I50)
Report the figure in ppb without appending any unit label.

smiles.str: O=C(O)C=Cc1ccc(Cl)c(Cl)c1
unit.abbrev: ppb
Assay Response (I50): 64

Look up Assay Response (I50): O=C(O)CCCCCOc1ccc(-c2cc(Cl)c(Cl)cc2Cl)c(Cl)c1
570

Look up Assay Response (I50): O=C(O)CCc1ccc(Cl)c(Cl)c1
47

Look up Assay Response (I50): O=C(O)CCCOc1ccc(Cl)c(Cl)c1
31

Look up Assay Response (I50): O=C(O)CCCSc1cc(Cl)ccc1Cl
33

Look up Assay Response (I50): O=C(O)CCCOc1ccc(Cl)cc1Cl
49

----------
- System: Hapten VII sera (polyclonal antibodies)
- method.notes: Sera direct EIA with Hapten VII sera and competitor enzyme conjugate
- Assay type: binding, mice
- experimental.conditions: Table 7, Hapten VII sera and Competitor D direct EIA
# key: entry, value: I50

Check out these entries, answers already filled in.
molecule: Clc1ccc(-c2ccc(Cl)cc2)cc1 [4,4'-dichloro]
I50: 4,300 ppb
//
molecule: Clc1cc(Cl)c(-c2cc(Cl)c(Cl)cc2Cl)cc1Cl [2,2',4,4',5,5'-hexachlorobiphenyl]
I50: > 20,000 ppb
//
molecule: Clc1ccc(Cl)c(-c2cc(Cl)ccc2Cl)c1 [2,2',5,5'-tetrachloro]
I50: > 20,000 ppb

Now consider the entry below.
Look up I50: Clc1ccc(-c2ccc(Cl)c(Cl)c2)cc1Cl [BZ No. 77, 3,3',4,4'-tetrachlorobiphenyl]
3 ppb
